Values compiled from the nanobody polyreactivity screen of Harvey et al. (2022).

Assay: yeast display, Sf9 membrane polyspecificity reagent, FACS + sequencing; frameworks hold sequencing errors

# SEQUENCE_ENTRY, polyreactivity (PSR sort gate)
records = [
    ("QVQLVESGGGLVQAGGSLRLICAASGRIFGIYAMGWYRQAPGKERELVASITGSSGSTNYADSVKGRFTISRDNAKNTVYLQMNSLKPEDTAVYYCAAERGYHGGGSGLYDYWGQGTQVTVSS", "low polyreactivity"),
    ("QVQLVESGGGLDQAGGSLRLTCAASGSIFAKYAMGWYRQAPGKERELVAAITSSGDSTNYADSVKGRFTISRDNAKNTVYVQMNSLKPEDTAVYYCAADHHYGYVYYAFWGYDYWGQGTQVTVSS", "low polyreactivity"),
]
